- Tested on: B6C3F1 mice, Lewis lung carcinoma iv, survival T/C
- measurement-description: NCI In Vivo Anticancer Drug Screen. Data for tumor model Lewis Lung Carcinoma (intravenous) in B6C3F1 mice
- stated-conditions: endpoint: median survival time; dose: 10.0 mg/kg/injection; schedule: Q01DX009 (ip); vehicle: saline
Toxic doses and inconclusive results are not listed. How the source made its calls: active means survival T/C of 150% or more; inactive means T/C below 125% in these data.
Hi there, use one of these labels in your reply, thanks! active, inactive

How did this test come out for NC(=O)c1ccc[n+](Cc2c(Cl)cccc2Cl)c1 ?
inactive

How did this test come out for O=NN(CCF)C(=O)N[C@H]1CCCC[C@H]1O ?
active

How did this test come out for Cc1nc(N)nc(N)c1-c1ccc(Cl)c(Cl)c1 ?
inactive

How did this test come out for C=C(C)[C@H]1CN[C@H](C(=O)O)[C@H]1CC(=O)O ?
inactive

How did this test come out for C[PH+](C)C.C[PH+](C)C.[Au] ?
inactive

How did this test come out for O=NN(CCF)C(=O)NC1C(O)CCCC1O (stereo not given) ?
active

How did this test come out for COc1ccc(C[C@H](N)C(=O)NC2C(CO)OC(n3cnc4c(N(C)C)ncnc43)C2O)cc1 (stereo not given in full) ?
inactive

How did this test come out for O=C1c2ccccc2C(=O)c2c(NCCNCCO)ccc(O)c21 ?
inactive

How did this test come out for O=NN(CCF)C(=O)NC1CCC(=O)NC1=O (stereo not given) ?
active

How did this test come out for O=NN(CCF)C(=O)NCCO ?
active

* * *

- System: B6C3F1 mice, Lewis lung carcinoma iv, survival T/C
- measurement-description: NCI In Vivo Anticancer Drug Screen. Data for tumor model Lewis Lung Carcinoma (intravenous) in B6C3F1 mice
- stated-conditions: endpoint: median survival time; dose: 25.0 mg/kg/injection; schedule: Q01DX009 (ip); vehicle: saline
Toxic doses and inconclusive results are not listed. The calls were made as follows: active = survival T/C of 150% or more; inactive = T/C below 125% in these data.
Hi there, use one of these labels in your reply, thanks! active, inactive

How did this test come out for NC1(C(=O)O)CCCC1 ?
inactive

How did this test come out for CCOC(=O)C(N)CSC(=O)NC (centres undefined) ?
inactive

How did this test come out for C=CCOCC1CO1 (centres undefined) ?
inactive

How did this test come out for O=[N+]([O-])c1nccn1CC(O)CO (centres undefined) ?
inactive

How did this test come out for O=P1(N(CCCl)CCCl)NCCCO1 (centres undefined) ?
active

How did this test come out for N=C(N)Sc1cc(O)ccc1O ?
inactive

How did this test come out for CSC(SC)=C1C(=O)NC(=O)NC1=O ?
inactive

How did this test come out for Cc1c2cc[n+](CCN3CCCCC3)cc2c(C)c2c1[nH]c1ccc(O)cc12 ?
inactive

How did this test come out for Cc1ccc2c(ccc(/C=C/c3ccc(O)c4ncccc34)[n+]2C)c1 ?
inactive

How did this test come out for COc1cc2cc3cc4cc(OC)c(OC)cc4c(C)[n+]3cc2cc1OC (tested in a mixture with another compound) ?
inactive

How did this test come out for NNC(=S)N/N=C/c1ccccn1 ?
active

How did this test come out for CCN(CC)CCOCCO ?
inactive

How did this test come out for C[C@@H]1C[C@@H]([C@H](O)CC2CC(=O)NC(=O)C2)C(=O)[C@@H](C)C1 ?
inactive

How did this test come out for NC1=NC(=O)N2CC12 (centres undefined) ?
inactive

How did this test come out for CC1(C)COCN1COCCOCN1COCC1(C)C ?
inactive

How did this test come out for CC(C)C(N)C(=O)Nc1nncs1 (centres undefined) ?
inactive

How did this test come out for N=c1ccn2c(n1)OC1C(O)C(CO)OC12 (centres undefined) ?
inactive

How did this test come out for [CH3][Sn]([CH3])([Cl])[S]CCN ?
inactive

How did this test come out for O=C(NO)c1ccc(O)c(O)c1 ?
inactive

How did this test come out for CC(=O)OCC1OC(n2ccc(N)nc2=O)C(OC(C)=O)C1OC(C)=O (centres undefined) ?
inactive

How did this test come out for Nc1ncnc2c1cnn2Cc1ccc(Cl)cc1 ?
inactive

How did this test come out for CN(C)CCNc1ccc([N+](=O)[O-])c2sc3ccccc3c(=O)c12 ?
inactive

How did this test come out for NC(=O)c1ncn2c(=O)n(CCCl)nnc12 ?
active

How did this test come out for CN(C)[C@@H]1C(=O)C(C(N)=O)=C(O)[C@@]2(O)C(=O)C3=C(O)c4c(O)ccc(Cl)c4[C@@](C)(O)[C@H]3C[C@@H]12 ?
inactive

How did this test come out for C=CCc1cn(C2CC(O)C(CO)O2)c(=O)[nH]c1=O (centres undefined) ?
inactive

How did this test come out for N=C1CCCS1 ?
inactive

How did this test come out for COc1cccc2c1C(=O)c1c(O)c3c(c(O)c1C2=O)CC(O)(C(=O)CO)CC3OC1CC(N)C(O)C(C)O1 (centres undefined) ?
inactive

How did this test come out for c1cc[c]([Sn]([NH]c2ncnc3[nH]cnc23)([NH]c2ncnc3[nH]cnc23)[c]2ccccc2)cc1 ?
inactive

How did this test come out for O=C(O)CP(=O)(O)O ?
inactive

How did this test come out for Nc1ncn(C2OC(CO)C(O)C2O)c(=O)n1 (centres undefined) ?
inactive

How did this test come out for CC(=O)CC(=O)CCC(=O)O ?
inactive

How did this test come out for O=C(O)CC(NC(=O)CP(=O)(O)O)C(=O)O (centres undefined) ?
inactive

How did this test come out for Cc1ccccc1CN1C2=NCCN2C(=O)C2=C1CCN(S(=O)(=O)c1ccc(Cl)c(S(N)(=O)=O)c1)C2 ?
inactive

How did this test come out for Oc1ccc(CCl)c2cccnc12 ?
inactive

How did this test come out for CC1CN1P1(N2CC2C)=NP(N2CC2C)(N2CC2C)=NP(N2CC2C)(N2CC2C)=N1 (centres undefined) ?
inactive

How did this test come out for CN(C)c1ncnc2c1ncn2C1OC(CO)C(N)C1O (centres undefined) ?
inactive

How did this test come out for O=C1CCC(=O)N1CO ?
inactive

How did this test come out for O=[N+]([O-])c1c(O)c(CNCCCO)cc(CNCCCO)c1O ?
inactive

How did this test come out for CCn1cnc2c(=S)nc[nH]c21 ?
inactive

How did this test come out for Cn1/c2cc/c1=C(\c1ccc(S(=O)(=O)O)cc1)c1ccc([n-]1)/C(c1ccc(S(=O)(=O)O)cc1)=c1/cc/c([nH]1)=C(\c1ccc(S(=O)(=O)O)cc1)c1ccc([n-]1)/C=2c1ccc(S(=O)(=O)O)cc1.O.O=S(=O)(O)C(F)(F)F.[Cu+2] ?
inactive

How did this test come out for Nc1nc(F)nc2c1ncn2C1OC(COP(=O)(O)O)C(O)C1O (centres undefined) ?
inactive

How did this test come out for CC1(C)OCC2OC=CC(=O)C2O1 (centres undefined) ?
inactive

How did this test come out for O=C1N(CC2CO2)CCN1CC1CO1 (centres undefined) ?
inactive

How did this test come out for COc1ccc(C(=O)C(CN(C)C)CN(C)C)cc1 ?
inactive

How did this test come out for N#C[C@H](OC1OC(COC2OC(CO)C(O)C(O)C2O)C(O)C(O)C1O)c1ccccc1 (some centres undefined) ?
inactive

How did this test come out for Brc1c(NC2=NCCN2)ccc2nccnc12 ?
inactive

How did this test come out for COc1cc2c(ccc3c4cc(OC)c(OC)cc4c[n+](C)c23)cc1O ?
inactive

How did this test come out for CCCC(=O)O ?
inactive

How did this test come out for CC(=O)N(C)c1ccc(Nc2cc(C)[nH]c3ccc4ncnc4c23)cc1 ?
inactive
